Reference source: ChEMBL document CHEMBL1201861

# maps each entry to its pIC50
Test system: LS-123
protocol notes: cells
Type: functional, cell-based, Homo sapiens
condition info: Homo sapiens, LS-123
Description: SANGER: Inhibition of human LS-123 cell growth in a cell viability assay.
pIC50: −log10 of the molar value.

Previously resolved entries follow.
smiles notation	pIC50
Cc1ccc(NC(=O)c2ccc(CN3CCN(C)CC3)cc2)cc1Nc1nccc(-c2cccnc2)n1	< 5.70
CC1(C)CCC(c2ccc(Cl)cc2)=C(CN2CCN(c3ccc(C(=O)NS(=O)(=O)c4ccc(N[C@H](CCN5CCOCC5)CSc5ccccc5)c(S(=O)(=O)C(F)(F)F)c4)cc3)CC2)C1	< 5.70
OC[C@H](Cc1ccccc1)Nc1nc(Oc2ccc3c(c2)CCC3)nc2c1ncn2Cc1ccc(-c2ccccc2)cc1	5.02

Switching to the query record.
q: Given the entry `NC(=O)c1cccc(-c2cc(Nc3ccc(OC(F)(F)F)cc3)ncn2)c1` , report its measured pIC50.
a: < 5.89
